FYI, the data here is from paper PMC9460038.

Tested on: Vero cells
PROTOCOL DESCRIPTION: Cytotoxic activity on Vero cell line (Trypan blue, 24 h)
Format: cell-based
ASSAY CONDITIONS: Chlorocebus sabaeus; Vero cells, 24 h, Probit; 95% confidence limits in brackets; read-out: Vero Cells IC50 (IC95%)
Method: Cytotoxicity assay was performed on Vero cell line (ATCC CCL-81), as previously described. Briefly, Vero cells were cultivated in Roswell Park Memorial Institute (RPMI) medium supplemented with 10% fetal bovine serum (FBS). […] The number of cells were determined in a Neubauer chamber, while the percentage of viable cells was measured with the Trypan blue staining method. […]
QUANTITY MEASURED: IC50 (µg/mL)

COMPOUND | MEASUREMENT TARGET | QUANTITY MEASURED | NUMBER
COc1ccc(C=O)cc1 [p-Anisaldehyde] | Vero cells | IC50 | 541
Oc1cccc(O)c1 [1,3-Benzenediol] | Vero cells | IC50 | 438
Cc1ncc([N+](=O)[O-])n1CCO [Metronidazole, reference compound] | Vero cells | IC50 | 83.5
CCCCCC/C=C/C=C/C=O [Trans, trans-2,4-undecadienal, trans, trans-2,4-undecadienal] | Vero cells | IC50 | 589
